Reference source: patent US20200239579A1

tgt: T1, PDLoneECDHisCtag (human, UniProt Q9NZQ7 19-238)
T1 construct: Expressed in HEK-293F cells; theoretical molecular weight 29 kDa; also called recombinant human PD-L1 ECD; human PD-L1 (BLI); not shown: C-terminal His-tag; C-tag
assay_procedure: BLI cross-block, second antibody on PDLoneECDHisCtag held by immobilised 338; bold = blocking
endpoint_name: association response of the second antibody (nm)

INSERT INTO measurements (binder, obs_value) VALUES
  ('IgG1-547-FEAR (antibody, V domains shown) VH: EVQLLEPGGGLVQPGGSLRLSCEASGSTFSTYAMSWVRQAPGKGLEWVSGFSGSGGFTFYADSVRGRFTISRDSSKNTLFLQMSSLRAEDTAVYYCAIPARGYNYGSFQHWGQGTLVTVSS VL: SYVLTQPPSVSVAPGQTARITCGGNNIGSKSVHWYQQKPGQAPVLVVYDDNDRPSGLPERFSGSNSGNTATLTISRVEAGDEADYYCQVWDSSSDHVVFGGGTKLTVLG', 0);
